System: SF-268
Experiment: NCI tumour cell line growth inhibition, 48 h
Activity calls are given as the source filed them. Rule as the data show it: active = GI50 up to about 1.1 µM and inactive = higher.
Possible outcomes: active, inactive

{"molecule": "CCOC(=O)c1ccc(/N=C\\c2ccc(N(CCC#N)CCC#N)cc2)cc1", "group.label": "inactive"}
{"molecule": "NC(=O)c1ncn2c(=O)n(CCCl)nnc12 [MITOZOLOMIDE]", "group.label": "inactive"}
{"molecule": "COC(O)C(=O)c1c2c(cc3c1CC1(Cc4cc5c(cc4C1)CCC5)C3)CCC2 (stereo not drawn)", "group.label": "inactive"}
{"molecule": "O=C1CC(=O)NC(NN2C(=O)/C(=C/c3ccc(Cl)c(Cl)c3)N=C2c2ccccc2)=N1", "group.label": "inactive"}
{"molecule": "O=[N+]([O-])c1ccc(Cl)cc1C1ON=C(c2ccccc2)N1C12CC3CC(CC(C3)C1)C2 (stereo not drawn)", "group.label": "inactive"}
{"molecule": "CC(C)(C)C(=O)N1C(C(=O)O)Cc2ccccc2[C@@H]1Cc1ccccc1 (stereo partly drawn)", "group.label": "inactive"}
{"molecule": "O=c1cc(-c2ccccc2)[nH]c2c(F)ccc(F)c12", "group.label": "inactive"}
{"molecule": "O=C(OCCC12CC3CC(CC(C3)C1)C2)c1ccc(NCc2cc(O)ccc2O)cc1", "group.label": "inactive"}
{"molecule": "COc1ccc([C@]23CCN4COC[C@@H]([C@H]42)C2(CC3)OCC(C)(C)CO2)cc1OC", "group.label": "inactive"}
{"molecule": "COc1ccc(C[C@H]2COC(=O)[C@@H]2Cc2cccc(Br)c2)cc1OC", "group.label": "inactive"}
{"molecule": "COc1cc(CNC2c3cc4c(cc3C(c3cc(OC)c(OC)c(OC)c3)[C@H]3C(=O)OCC23)OCO4)cc(OC)c1OC (stereo partly drawn)", "group.label": "active"}
{"molecule": "C/C(CC(=O)CCC(=O)Nc1cccc(C(F)(F)F)c1)=N\\NC(=O)NN", "group.label": "inactive"}
{"molecule": "C=CCC(CNC(=O)OCc1ccccc1)OC(=O)OCc1ccccc1 (stereo not drawn)", "group.label": "inactive"}
{"molecule": "O=C(O[C@H]1[C@@H]2C=CO[C@@H](OC3OC(CO)C(O)C(O)C3O)[C@@H]2[C@@]2(CO)O[C@@H]12)c1ccc(O)c(O)c1 (stereo partly drawn)", "group.label": "inactive"}
{"molecule": "CC(=O)N1CC(C)(C)c2c1cc(C)c(O)c2C", "group.label": "inactive"}
{"molecule": "COC(=O)/C=C1\\C(=O)Nc2ccc(Br)cc21", "group.label": "inactive"}
{"molecule": "COc1ccc(/C=C/C(=O)c2sc(NC(=S)NC(=O)c3ccc(Cl)cc3)nc2C)cc1OC", "group.label": "inactive"}
{"molecule": "C=CCOc1ccc(C2(O)c3ccccc3C3=NCCCN32)cc1 (stereo not drawn)", "group.label": "inactive"}
